Every entry's value here was drawn from paper PMC9694494.

system: CHO-K1 cells; experiment: SRB cell viability (cytotoxicity), CHO-K1; format: cell-based; settings: Cricetulus griseus, 24 H, CHO-K1 nonmalignant cells, read-out: IC50 ± SEM CHO
observable: pIC50
Note: pIC50 values are expressed as the negative base-10 logarithm of concentration in M.

The molecule O=C(N/N=C/c1c(O)cc(O)cc1/C=C/c1ccc(O)cc1)c1ccc(F)cc1 , when measured on CHO-K1 cells, yielded pIC50 of 4.65

The molecule COc1cccc(C(=O)N/N=C/c2c(O)cc(O)cc2/C=C/c2ccc(O)cc2)c1 , when measured on CHO-K1 cells, yielded pIC50 of 4.55

The molecule COc1ccc(C(=O)N/N=C/c2c(O)cc(O)cc2/C=C/c2ccc(O)cc2)cc1OC , when measured on CHO-K1 cells, yielded pIC50 of 4.48

The molecule COc1ccc(OC)c(C(=O)N/N=C/c2c(O)cc(O)cc2/C=C/c2ccc(O)cc2)c1 , when measured on CHO-K1 cells, yielded pIC50 of 4.64

The molecule COc1ccc(C(=O)N/N=C/c2c(O)cc(O)cc2/C=C/c2ccc(O)cc2)cc1 , when measured on CHO-K1 cells, yielded pIC50 of 4.63

The molecule NC(=S)N/N=C/c1c(O)cc(O)cc1/C=C/c1ccc(O)cc1 , when measured on CHO-K1 cells, yielded pIC50 of 4.38

The molecule COc1ccc(C(=O)N/N=C/c2c(O)cc(O)cc2/C=C/c2ccc(O)cc2)c(OC)c1 , when measured on CHO-K1 cells, yielded pIC50 of 4.69

The molecule COc1cccc(C(=O)N/N=C/c2c(O)cc(O)cc2/C=C/c2ccc(O)cc2)c1OC , when measured on CHO-K1 cells, yielded pIC50 of 4.45

The molecule COc1cc(OC)cc(C(=O)N/N=C/c2c(O)cc(O)cc2/C=C/c2ccc(O)cc2)c1 , when measured on CHO-K1 cells, yielded pIC50 of 4.64

The molecule O=C(N/N=C/c1c(O)cc(O)cc1/C=C/c1ccc(O)cc1)c1ccncc1 , when measured on CHO-K1 cells, yielded pIC50 of 4.17
